Molecular target: Muscarinic acetylcholine receptor M4 (Homo sapiens)
Experiment: compounds altering M4/GIRK thallium flux, either direction, primary screen, M4 allosteric agonist project, cell-based, HEK293 M4/GIRK, BTC-AM (AID 625);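 further: thallium influx through GIRK channels coupled to M4 in HEK293 cells with BTC-AM dye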
Conditions: at 10 µM, actives lie on both sides
fluorescence slope listing for selected molecules.
Give the figure only, with no unit attached.

Worked examples follow.
[
  {
    "molecule": "O=C(/C=N/O)NCCCN1CCOCC1",
    "property": "fluorescence slope",
    "measurement": 0.00666
  },
  {
    "molecule": "COc1ccc(/C(O)=C2\\C(=O)C(=O)N(CCN(C)C)C2c2cccc(OC)c2OC)cc1Cl (stereo unspecified)",
    "property": "fluorescence slope",
    "measurement": 0.00451
  },
  {
    "molecule": "CCCSc1nc(O)c(C2OC(=O)c3c2ccc(OC)c3OC)c(=O)n1C (stereo unspecified)",
    "property": "fluorescence slope",
    "measurement": 0.00648
  },
  {
    "molecule": "CSc1nc(N)nc(SCC(=O)C23CC4CC(CC(C4)C2)C3)c1C#N",
    "property": "fluorescence slope",
    "measurement": 0.00876
  },
  {
    "molecule": "COc1ccccc1NC(=O)Nc1nnc(C(C)C)s1",
    "property": "fluorescence slope",
    "measurement": 0.00885
  },
  {
    "molecule": "Cc1ccc(-n2ncc3c(NCc4cccnc4)ncnc32)c(C)c1",
    "property": "fluorescence slope",
    "measurement": 0.00518
  },
  {
    "molecule": "CCn1c(SCC(=O)NC2CCCCC2C)nnc1-c1ccc(OC)cc1 (stereo unspecified)",
    "property": "fluorescence slope",
    "measurement": 0.00502
  },
  {
    "molecule": "O=C1c2ccccc2C(=O)N1CC1c2ccccc2CCN1C(=O)N1CCOCC1 (stereo unspecified)",
    "property": "fluorescence slope",
    "measurement": 0.0053
  }
]

# lookup: "O=C(COc1ccc(Cl)cc1)Nc1ccccc1CO" on Muscarinic acetylcholine receptor M4 (Homo sapiens), fluorescence slope = 0.00526

Observed fluorescence slope on Muscarinic acetylcholine receptor M4 (Homo sapiens), entry "Cn1cccc1/C=N/n1cnnc1" , equals 0.0051

# lookup: CCOc1ccc(/C(O)=C2/C(=O)C(=O)N(c3cc(C)on3)C2c2ccc(C(=O)OC)cc2)cc1 (stereo unspecified) on Muscarinic acetylcholine receptor M4 (Homo sapiens), fluorescence slope = 0.00438
